test: in vitro; details: human, IC50, CYP3A4
OBSERVABLE: pIC50
Numbers only, as −log10 of the molar value.

// query pIC50 value for entry CN1CCCC1c1cccnc1 (centres unmarked)
3.19

* * *

Assay: Cytotoxicity of compounds and their P450-generated metabolites, Hep3B DataChip stamped with MetaChip
Conditions: human, IC50, CYP3A4, Hep3B DataChip; MetaChip spots with CYP3A4
Method: The cytotoxicity of drugs (or drug metabolites) was determined by staining the slide containing the cells with a Live/Dead test kit (Molecular Probes) that produces a green fluorescent response from living cells. […] where FReaction is the green fluorescence intensity of the reaction spot and FMax is the green fluorescence intensity of untreated fully viable cells. […]
Provide the reported IC50 at 6 h of each item.
Answers are plain numbers, in µM.

Count: 7. Required value per item: IC50 at 6 h.
1. COc1cccc2c1C(=O)c1c(O)c3c(c(O)c1C2=O)C[C@@](O)(C(=O)CO)C[C@@H]3O[C@H]1C[C@H](N)[C@H](O)[C@H](C)O1
2. O=c1[nH]c(=O)n(C2CCCO2)cc1F (centres unmarked)
3. Cl[C@H]1[C@H](Cl)[C@@H](Cl)[C@@H](Cl)[C@H](Cl)[C@H]1Cl
4. C[C@H]1O[C@@H](O[C@H]2[C@@H](O)C[C@H](O[C@H]3[C@@H](O)C[C@H](O[C@H]4CC[C@@]5(C)[C@H](CC[C@@H]6[C@@H]5C[C@@H](O)[C@]5(C)[C@@H](C7=CC(=O)OC7)CC[C@]65O)C4)O[C@@H]3C)O[C@@H]2C)C[C@H](O)[C@@H]1O
5. C=C[C@H]1C[N@@]2CC[C@H]1C[C@@H]2[C@@H](O)c1ccnc2ccc(OC)cc12
6. O=P1(N(CCCl)CCCl)NCCCO1 (centres unmarked) [Cyclophosphamide, cyclophosphamide]
7. CCN(CC)CCCC(C)Nc1ccnc2cc(Cl)ccc12 (centres unmarked)

1. 19.3
2. 54800
3. 523
4. 1.37
5. 126
6. 2110
7. 79.7

* * *

assay: in vitro; conditions: human, IC50, No P450, Hep3B DataChip; test compound only control without P450
OBSERVABLE: IC50 (µM)
Answers are plain numbers, in µM.

Query: IC50; subject: C[n+]1ccc(-c2cc[n+](C)cc2)cc1 [Paraquat, paraquat]
79.8

* * *

Give IC50 at 6 h for every item shown.
experiment: Cytotoxicity of compounds and their P450-generated metabolites, Hep3B DataChip stamped with MetaChip; details: human, IC50 values, Hep3B DataChip

MOLECULE	IC50 at 6 h
C[C@H]1O[C@@H](O[C@H]2[C@@H](O)C[C@H](O[C@H]3[C@@H](O)C[C@H](O[C@H]4CC[C@@]5(C)[C@H](CC[C@@H]6[C@@H]5C[C@@H](O)[C@]5(C)[C@@H](C7=CC(=O)OC7)CC[C@]65O)C4)O[C@@H]3C)O[C@@H]2C)C[C@H](O)[C@@H]1O [Digoxin]	< 1000 nM

In the following, a different molecule is considered.
Could you share which IC50 at 6 h value was measured for COc1cccc2c1C(=O)c1c(O)c3c(c(O)c1C2=O)C[C@@](O)(C(=O)CO)C[C@@H]3O[C@H]1C[C@H](N)[C@H](O)[C@H](C)O1 [Doxorubicin, doxorubicin] ?
< 1000 nM

* * *

tested on: human Hep3B cells; experiment: in vitro
OBSERVABLE: Activation or deactivation of the toxic response by CYP2D6

MOLECULE	MEAS VALUE
CN1CCCC1c1cccnc1 (stereo not shown)	deactivating
CN(Cc1cnc2nc(N)nc(N)c2n1)c1ccc(C(=O)N[C@@H](CCC(=O)O)C(=O)O)cc1 [Methotrexate]	deactivating

* * *

test: in vitro; conditions: human, IC50, CYP3A4, Hep3B DataChip; MetaChip spots with CYP3A4
OBSERVABLE: pIC50
Numbers only, as −log10 of the molar value.

Entry C[n+]1ccc(-c2cc[n+](C)cc2)cc1 : reported pIC50 = ?
4.28

* * *

assay: in vitro; settings: human, IC50, Mixture
OBSERVABLE: IC50 at 6 h

# get_value(readout='IC50 at 6 h', item= CC(=O)CC(c1ccccc1)c1c(O)c2ccccc2oc1=O (stereo not shown) [Warfarin] )
> 1000 µM

* * *

test: Cytotoxicity of compounds and their P450-generated metabolites, Hep3B DataChip stamped with MetaChip; conditions: human, IC50, Mixture, Hep3B DataChip; equimolar mixture of CYP1A2, CYP2D6, CYP3A4
Assign labels as follows, please: MET for IC50 at 6 h below 80 µM; NOT MET for IC50 at 6 h equal to or exceeding 80 µM.

MOLECULE	CLASS ASSIGNMENT
CN(Cc1cnc2nc(N)nc(N)c2n1)c1ccc(C(=O)N[C@@H](CCC(=O)O)C(=O)O)cc1 [Methotrexate]	MET

IC50 at 6 h under 80 µM? Item: O=P1(N(CCCl)CCCl)NCCCO1 (centres unmarked) [Cyclophosphamide, cyclophosphamide]
NOT MET

Does Cn1c(=O)c2[nH]cnc2n(C)c1=O have IC50 at 6 h strictly under 80 µM?
NOT MET

Just wondering, is IC50 at 6 h of O=c1[nH]c(=O)n(C2CCCO2)cc1F (centres unmarked) below 80 µM?
NOT MET

Field: below-cutoff. Rule: recorded IC50 at 6 h strictly less than 80 µM. Subject: C[C@H]1O[C@@H](O[C@H]2[C@@H](O)C[C@H](O[C@H]3[C@@H](O)C[C@H](O[C@H]4CC[C@@]5(C)[C@H](CC[C@@H]6[C@@H]5C[C@@H](O)[C@]5(C)[C@@H](C7=CC(=O)OC7)CC[C@]65O)C4)O[C@@H]3C)O[C@@H]2C)C[C@H](O)[C@@H]1O
MET

Hello, I'm reviewing records and need to know if IC50 at 6 h of C=C[C@H]1C[N@@]2CC[C@H]1C[C@@H]2[C@@H](O)c1ccnc2ccc(OC)cc12 is below 80 µM. Could you check?
NOT MET

I'd appreciate it if you could check whether O=c1[nH]cc(F)c(=O)[nH]1 has IC50 at 6 h smaller than 80 µM.
NOT MET

Strictly below 80 µM: is that where IC50 at 6 h of NNC(=O)c1ccncc1 sits?
NOT MET

Report whether reported IC50 at 6 h is lower than 80 µM (strictly) for COc1cccc2c1C(=O)c1c(O)c3c(c(O)c1C2=O)C[C@@](O)(C(=O)CO)C[C@@H]3O[C@H]1C[C@H](N)[C@H](O)[C@H](C)O1
MET

Regarding CN(C)CCC=C1c2ccccc2CCc2ccccc21 , kindly confirm whether its IC50 at 6 h is beneath 80 µM.
MET

Criterion: IC50 at 6 h strictly below 80 µM. Is it met by CC(=O)Oc1ccccc1C(=O)O ?
NOT MET

# TODO verify IC50 at 6 h < 80 µM strictly for this molecule: Cl[C@H]1[C@H](Cl)[C@@H](Cl)[C@@H](Cl)[C@H](Cl)[C@H]1Cl
NOT MET

Regarding CCN(CC)CCCC(C)Nc1ccnc2cc(Cl)ccc12 (centres unmarked) , kindly confirm whether its IC50 at 6 h is beneath 80 µM.
NOT MET

# strict comparison: is reported IC50 at 6 h < 80 µM? input = CC(=O)Nc1ccc(O)cc1
NOT MET

* * *

assay: in vitro; conditions: human, IC50, CYP1A2, Hep3B DataChip; MetaChip spots with CYP1A2
OBSERVABLE: IC50 (µM)
Numbers only, in µM.

Reported IC50 for C[n+]1ccc(-c2cc[n+](C)cc2)cc1 [Paraquat, paraquat] : what is it?
5.06

* * *

Kindly supply the reported IC50 at 6 h values for the records listed here.
test: Cytotoxicity of compounds and their P450-generated metabolites, Hep3B DataChip stamped with MetaChip; conditions: human, IC50, CYP1A2, Hep3B DataChip; MetaChip spots with CYP1A2

Worked examples follow.
COMPOUND	MEAS VALUE
CC(=O)Oc1ccccc1C(=O)O	> 1000 µM
O=c1[nH]c(=O)n(C2CCCO2)cc1F (stereo not drawn)	> 1000 µM

# ---- query compound ----
Look at this compound and give its reported IC50 at 6 h. O=P1(N(CCCl)CCCl)NCCCO1 (stereo not drawn) [Cyclophosphamide, cyclophosphamide]
> 1000 µM

* * *

assay: Cytotoxicity of compounds and their P450-generated metabolites, Hep3B DataChip stamped with MetaChip; conditions: human, IC50, CYP3A4, Hep3B DataChip; MetaChip spots with CYP3A4
OBSERVABLE: IC50 at 6 h

COMPOUND	OBSERVABLE	MEAS VALUE
CC(=O)Oc1ccccc1C(=O)O	IC50 at 6 h	> 1000 µM
NNC(=O)c1ccncc1	IC50 at 6 h	> 1000 µM
CC(=O)Nc1ccc(O)cc1	IC50 at 6 h	2770 µM
CN(Cc1cnc2nc(N)nc(N)c2n1)c1ccc(C(=O)N[C@@H](CCC(=O)O)C(=O)O)cc1 [Methotrexate]	IC50 at 6 h	10.9 µM
CN(C)CCC=C1c2ccccc2CCc2ccccc21	IC50 at 6 h	63.4 µM

// for each compound below, give its IC50 at 6 h
1. O=c1[nH]cc(F)c(=O)[nH]1
2. Cn1c(=O)c2[nH]cnc2n(C)c1=O

["349 µM", "36.9 µM"]

The reported measurements were obtained from patent US20090221441A1.
